Collected EC50 values appear next to each entry.
- Test system: SARS-CoV-2 B.1.1.7 lineage
- Measurement notes: microbe, parasite or virus in culture
- Format: cell-based
- Run parameters: Severe acute respiratory syndrome coronavirus 2; Table C; SARS-CoV-2 B.1.1.7 in A549-dual_ACE2_TMPRSS2 cells, class symbols; read-out: A549-dual_ACE2_TMPRSS2 (EC50)
Measurement name: EC50

| Compound | Measurement name | Observed measurement |
| --- | --- | --- |
| CN(C(=O)[C@H](CC1CC1)NC(=O)C1(F)CC1)[C@@H](CC1CC1)C(=O)N1C[C@@]2(C[C@H]1C#N)Oc1cc(F)cc(F)c1NC2=O | EC50 | < 100 nM |
| CN(C(=O)[C@H](COC(C)(C)C)NC(=O)C(F)(F)F)[C@@H](CC1CC1)C(=O)N1C[C@@]2(C[C@H]1C#N)Oc1cc(F)cc(F)c1NC2=O | EC50 | < 100 nM |
| C[C@H](c1ccccc1)[C@H](NC(=O)C(F)(F)F)C(=O)N(C)[C@@H](CC1CC1)C(=O)N1C[C@@]2(C[C@H]1C#N)Oc1cccnc1NC2=O | EC50 | 100 to 1000 nM |
| CC(C)C[C@@H](C(=O)N1C[C@@]2(C[C@H]1C#N)Oc1cc(F)cc(F)c1NC2=O)N(C)C(=O)[C@H](C)NC(=O)C1(F)CC1 | EC50 | 100 to 1000 nM |
| CN(C(=O)c1cc2c(F)cc(F)c(F)c2[nH]1)[C@@H](CC1CC1)C(=O)N1C[C@@]2(C[C@H]1C#N)Oc1cccc(F)c1NC2=O | EC50 | 100 to 1000 nM |
| CC(C)C[C@@H](C(=O)N1C[C@@]2(CCCNC2=O)C[C@H]1C#N)N(C)C(=O)[C@H](C)NC(=O)C(F)(F)F | EC50 | 1000 to 10000 nM |

---

- Measurement target: SARS-Cov-2 3CLpro (Severe acute respiratory syndrome coronavirus 2)
- Measurement notes: biochemical
- Run parameters: Table A, class symbols, read-out: SARS-Cov-2 (IC50)
pIC50: −log10 of the molar value.
Collected pIC50 values appear next to each entry.
Measurement name: pIC50

| Molecule | Measurement name | Observed measurement |
| --- | --- | --- |
| C[C@H](NC(=O)C1(F)CC1)C(=O)N(C)[C@@H](CC1CC1)C(=O)N1C[C@@]2(C[C@H]1C#N)Oc1cccnc1NC2=O [Compound 169] | pIC50 | > 7.70 |
| C[C@H](OCc1ccccc1)[C@H](NC(=O)C(F)(F)F)C(=O)N(C)[C@@H](CC1CC1)C(=O)N1C[C@@]2(C[C@H]1C#N)Oc1cccnc1NC2=O [Compound 192] | pIC50 | 6.70 to 7.70 |
| CC(C)OC(=O)N[C@@H](C)C(=O)N(C)[C@@H](CC1CC1)C(=O)N1C[C@@]2(C[C@H]1C#N)Oc1cc(F)cc(F)c1NC2=O [Compound 120] | pIC50 | > 7.70 |
| CC(C)C[C@@H](C(=O)N1C[C@]2(CC(C)NC2=O)C[C@H]1C#N)N(C)C(=O)[C@H](C)NC(=O)C(F)(F)F (stereo partly drawn) [Compound 21] | pIC50 | > 7.70 |
| C[C@H](NC(=O)c1ccc(F)cc1)C(=O)N(C)[C@@H](CC1CC1)C(=O)N1C[C@@]2(C[C@H]1C#N)Oc1cccnc1NC2=O [Compound 195] | pIC50 | > 7.70 |
| CC([C@H](NC(=O)C(F)(F)F)C(=O)N(C)[C@@H](CC1CC1)C(=O)N1C[C@@]2(C[C@H]1C#N)Oc1cccnc1NC2=O)C(C)(C)C (stereo partly drawn) [Compound 234] | pIC50 | > 7.70 |

---

- Measurement notes: Cytotoxicity in HeLa cells without addition of OC43 virus (in parallel)
- Run parameters: human, HeLa cells, without OC43 virus
Measurement name: CC50 at 6 days

| Compound | Measurement name | Observed measurement |
| --- | --- | --- |
| CCOC[C@H](NC(=O)C(F)(F)F)C(=O)N(C)[C@@H](CC1CC1)C(=O)N1C[C@@]2(C[C@H]1C#N)Oc1cccnc1NC2=O | CC50 at 6 days | > 10 µM |
| CC(C)OC(=O)N[C@@H](C)C(=O)N(C)[C@@H](CC1CC1)C(=O)N1C[C@@]2(C[C@H]1C#N)Oc1cc(F)cc(F)c1NC2=O | CC50 at 6 days | > 10 µM |
| C[C@H](NC(=O)OC1CC1)C(=O)N(C)[C@@H](CC1CC1)C(=O)N1C[C@@]2(C[C@H]1C#N)Oc1cccnc1NC2=O | CC50 at 6 days | > 10 µM |

---

Collected IC50 values appear next to each entry.
- Measurement target: SARS-Cov-2 3CLpro (Severe acute respiratory syndrome coronavirus 2)
- Measurement notes: biochemical
- Run parameters: Table A, class symbols, read-out: SARS-Cov-2 (IC50)

| Compound | IC50 |
| --- | --- |
| CC(C)C[C@@H](C(=O)N1C[C@@]2(C[C@H]1C#N)Oc1cc(F)cc(F)c1NC2=O)N(C)C(=O)[C@H](CC(C)(C)F)NC(=O)C(F)(F)F | < 20 nM |
| CN(C(=O)c1nnc(-c2ccccc2)[nH]1)[C@@H](CC1CC1)C(=O)N1C[C@@]2(C[C@H]1C#N)Oc1cccnc1NC2=O | 200 to 2000 nM |
| CC(C)CC(C(=O)N1C[C@]2(C[C@H]1C#N)C(=O)Nc1c3c(nn12)CCCC3)N(C)C(=O)[C@H](C)NC(=O)C(F)(F)F (stereo in doubt) | < 20 nM |
| CN(C(=O)[C@H](CC1CC1)NC(=O)C(F)(F)F)[C@@H](CC1CC1)C(=O)N1C[C@@]2(C[C@H]1C#N)Sc1ccccc1NC2=O | < 20 nM |
| CN(C(=O)[C@H](CC1CC1)NC(=O)C(F)(F)F)[C@@H](CC1CC1)C(=O)N1C[C@@]2(C[C@H]1C#N)Oc1ccccc1CNC2=O | < 20 nM |
| Cc1nnn(C(CC2CC2)C(=O)N(C)[C@@H](CC2CC2)C(=O)N2C[C@@]3(C[C@H]2C#N)Oc2cc(F)cc(F)c2NC3=O)c1C (relative stereo) [Compound 117] | 200 to 2000 nM |

---

- Tested on: SARS-CoV-2 B.1.1.7 lineage
- Measurement notes: microbe, parasite or virus in culture
- Type: cell-based
- Run parameters: Severe acute respiratory syndrome coronavirus 2; Table C; SARS-CoV-2 B.1.1.7 in A549-dual_ACE2_TMPRSS2 cells, class symbols; read-out: A549-dual_ACE2_TMPRSS2 (EC50)
pEC50: −log10 of the molar value.
Collected pEC50 values appear next to each entry.

| Molecule | pEC50 |
| --- | --- |
| CN(C(=O)C(O)c1ccc(F)cc1)[C@@H](CC1CC1)C(=O)N1C[C@@]2(C[C@H]1C#N)Oc1cc(F)cc(F)c1NC2=O (stereo partly drawn) | 6.00 to 7.00 |
| CN(C(=O)[C@H](CC(C)(C)C)n1cc(C2CC2)nn1)[C@@H](CC1CC1)C(=O)N1C[C@@]2(C[C@H]1C#N)Oc1cc(F)cc(F)c1NC2=O | > 7.00 |
| C[C@H](NC(=O)C(F)(F)F)C(=O)N(C)[C@@H](CC1CC1)C(=O)N1C[C@@]2(C[C@H]1C#N)Oc1cc(Cl)cnc1NC2=O | > 7.00 |
| CN(C(=O)[C@H](CC1CC1)NC(=O)C(F)(F)F)C(CC1CC1)C(=O)N1C[C@]2(Cc3ccccc3NC2=O)C[C@H]1C#N (stereo in doubt) | > 7.00 |
| CN(C(=O)[C@@H](COC(C)(C)C)NC(=O)C(F)(F)F)[C@@H](CC1CC1)C(=O)N1C[C@@]2(C[C@H]1C#N)Oc1cccnc1NC2=O | 6.00 to 7.00 |
| CN(C(=O)[C@H](COC(C)(C)C)NC(=O)C(F)(F)F)[C@@H](CC1CC1)C(=O)N1C[C@@]2(C[C@H]1C#N)Oc1cccnc1NC2=O | 6.00 to 7.00 |

---

- System: SARS-CoV-2 B.1.1.7 lineage
- Measurement notes: microbe, parasite or virus in culture
- Format: cell-based
- Run parameters: Severe acute respiratory syndrome coronavirus 2, read-out: A549-dual_ACE2_TMPRSS2 (EC50)
Measurement name: EC50

| Compound | Measurement name | Observed measurement |
| --- | --- | --- |
| CC(C)C[C@@H](C(=O)N1C[C@@]2(C[C@H]1C#N)CC1(CC1)NC2=O)N(C)C(=O)[C@H](C)NC(=O)C(F)(F)F | EC50 | 100 to 1000 nM |

---

- Measurement target: SARS-Cov-2 3CLpro (Severe acute respiratory syndrome coronavirus 2)
- Measurement notes: biochemical
- Run parameters: Table A, class symbols, read-out: SARS-Cov-2 (IC50)
Collected IC50 values appear next to each entry.
Measurement name: IC50

| Compound | Observed measurement |
| --- | --- |
| CN(C(=O)[C@H](CC(C)(C)C)NC(=O)C(F)(F)F)[C@@H](CC1CC1)C(=O)N1C[C@@]2(C[C@H]1C#N)Oc1cccnc1NC2=O [Compound 233] | < 0.02 µM |
| CN(C(=O)[C@H](CC1CC1)NS(=O)(=O)C1CC1)[C@@H](CC1CC1)C(=O)N1C[C@@]2(C[C@H]1C#N)Oc1ccccc1CNC2=O [Compound 175] | < 0.02 µM |
| CN(C(=O)[C@@H](NC(=O)C(F)(F)F)C(C)(C)C)[C@@H](CC1CC1)C(=O)N1C[C@@]2(C[C@H]1C#N)Oc1cc(F)cc(F)c1NC2=O [Compound 53] | < 0.02 µM |
| CC1NC(=O)[C@]2(C[C@@H](C#N)N(C(=O)[C@H](CC3CC3)N(C)C(=O)[C@H](CC3CC3)NC(=O)C(F)(F)F)C2)Oc2ccccc21 (stereo partly drawn) [Compound 222] | < 0.02 µM |
| CN(C(=O)[C@H](CC1CC1)NC(=O)C(F)(F)F)[C@@H](CC1CC1)C(=O)N1C[C@@]2(C[C@H]1C#N)Oc1ccccc1C1(CC1)NC2=O [Compound 113] | 0.02 to 0.2 µM |
| CN(C(=O)c1cc2c(F)cc(F)c(F)c2[nH]1)[C@@H](CC1CC1)C(=O)N1C[C@@]2(C[C@H]1C#N)Oc1cccc(F)c1NC2=O [Compound 97] | < 0.02 µM |
| CC(C)C[C@@H](C(=O)N1C[C@@]2(C[C@H]1C#N)CC1(CC1)NC2=O)N(C)C(=O)[C@H](C)NC(=O)C(F)(F)F [Compound 13] | < 0.02 µM |
| CC(C)C[C@@H](C(=O)N1C[C@]2(C[C@H]1C#N)C(=O)Nc1cc(Br)nn12)N(C)C(=O)[C@H](C)NC(=O)C(F)(F)F [Compound 26] | 0.02 to 0.2 µM |
| [2H]C([2H])([2H])N(C(=O)[C@H](C)NC(=O)C(F)(F)F)[C@@H](CC(C)C)C(=O)N1C[C@@]2(C[C@H]1C#N)Oc1cc(F)cc(F)c1NC2=O [Compound 109] | < 0.02 µM |
| CC(C)C[C@@H](C(=O)N1C[C@@]2(C[C@H]1C#N)Oc1c(F)cc(F)cc1NC2=O)N(C)C(=O)[C@H](C)NC(=O)C(F)(F)F [Compound 49] | < 0.02 µM |
| CC(C)C[C@@H](C(=O)N1C[C@@]2(C[C@H]1C#N)N=C(c1ccccc1)NC2=O)N(C)C(=O)c1cc2c(F)cc(F)cc2[nH]1 [Example 6] | < 0.02 µM |
| CN(C(=O)[C@@H](CC1CC1)n1cc(C2CC2)nn1)[C@@H](CC1CC1)C(=O)N1C[C@@]2(C[C@H]1C#N)Oc1cc(F)cc(F)c1NC2=O [Compound 107] | < 0.02 µM |
